These entries and their values trace back to ChEMBL document CHEMBL4028872.

- STUDY TARGET: Sodium- and chloride-dependent GABA transporter 2 (Homo sapiens, UniProt Q9NSD5)
- Sequence (Q9NSD5 whole entry): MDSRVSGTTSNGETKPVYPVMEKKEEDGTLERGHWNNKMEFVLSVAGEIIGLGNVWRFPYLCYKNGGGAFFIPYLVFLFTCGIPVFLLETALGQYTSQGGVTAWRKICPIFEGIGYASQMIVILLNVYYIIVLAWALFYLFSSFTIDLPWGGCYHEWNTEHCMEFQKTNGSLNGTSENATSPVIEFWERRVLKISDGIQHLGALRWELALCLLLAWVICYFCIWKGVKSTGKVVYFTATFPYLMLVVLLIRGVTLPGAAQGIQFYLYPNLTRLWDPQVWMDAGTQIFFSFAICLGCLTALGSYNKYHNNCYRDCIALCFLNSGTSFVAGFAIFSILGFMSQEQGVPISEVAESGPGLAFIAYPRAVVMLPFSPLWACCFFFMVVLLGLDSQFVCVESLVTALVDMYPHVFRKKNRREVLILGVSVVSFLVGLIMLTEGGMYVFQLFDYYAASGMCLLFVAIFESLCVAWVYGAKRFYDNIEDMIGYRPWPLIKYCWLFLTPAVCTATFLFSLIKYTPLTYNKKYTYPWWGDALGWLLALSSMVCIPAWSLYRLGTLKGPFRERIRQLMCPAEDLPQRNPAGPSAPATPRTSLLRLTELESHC
- RUN DESCRIPTION: Inhibition of human GAT2 expresses in tsA201 cells assessed as reduction in [3H]GABA uptake after 3 mins by scintillation counting method
- Type: cell-based
- CONDITIONS USED: read-out: IC50
Consider the following compounds and their measured IC50 readings.

Ask: Can you look up the measured IC50 of O=C(NC1CCN(Cc2ccc3ccccc3n2)CC1)c1ccc(Cl)cc1Cl for me?
Result: > 50 µM

Ask: Can you look up the measured IC50 of COC(=O)c1ccc(CN2CCC(NC(=O)c3ccc(Cl)cc3Cl)CC2)cc1 for me?
Result: > 100 µM

Ask: Can you look up the measured IC50 of CCOc1ccccc1C(=O)NC1CCN(Cc2ccccc2)CC1 for me?
Result: > 500 µM

Ask: Can you look up the measured IC50 of O=C(NC1CCN(Cc2ccccc2)CC1)c1ccccc1 for me?
Result: > 1000 µM

Ask: Can you look up the measured IC50 of O=C(NC1CCN(Cc2ccccc2)CC1)c1cccc(C(F)(F)F)c1 for me?
Result: > 500 µM

Could you now consider this next compound?
Ask: Can you look up the measured IC50 of CN1CCC(NC(=O)c2ccc(Cl)cc2Cl)CC1 for me?
Result: > 1000 µM
